# assay-overview: DRUGMATRIX: Glutamate, NMDA, Agonism radioligand binding (ligand: [3H] CGP-39653)
# Type: cell membranes, Rattus norvegicus, Wistar, Cerebral cortex, Membrane
# recorded-conditions: Not Active = under 50% inhibition at 10 µM
parameter-measured: IC50

compound=C[C@@H](CO)NC(=O)[C@@H]1C=C2c3cccc4[nH]cc(c34)C[C@H]2N(C)C1 result="Not Active"
compound="CC(C(=O)O)c1ccc2oc(-c3ccc(Cl)cc3)nc2c1 (centres undefined)" result="Not Active"
compound=CC(=O)[C@H]1[C@H](C#N)C[C@H]2[C@@H]3CC=C4C[C@@H](O)CC[C@]4(C)[C@H]3CC[C@@]21C result="Not Active"
compound=O=C(O)c1cccnc1Nc1cccc(C(F)(F)F)c1 result="Not Active"

* * *

# test-target: Alpha-2A adrenergic receptor (Homo sapiens, UniProt P08913); further: in other assays of this panel Not Active means under 50% inhibition at 10 µM
# Sequence (P08913 whole entry): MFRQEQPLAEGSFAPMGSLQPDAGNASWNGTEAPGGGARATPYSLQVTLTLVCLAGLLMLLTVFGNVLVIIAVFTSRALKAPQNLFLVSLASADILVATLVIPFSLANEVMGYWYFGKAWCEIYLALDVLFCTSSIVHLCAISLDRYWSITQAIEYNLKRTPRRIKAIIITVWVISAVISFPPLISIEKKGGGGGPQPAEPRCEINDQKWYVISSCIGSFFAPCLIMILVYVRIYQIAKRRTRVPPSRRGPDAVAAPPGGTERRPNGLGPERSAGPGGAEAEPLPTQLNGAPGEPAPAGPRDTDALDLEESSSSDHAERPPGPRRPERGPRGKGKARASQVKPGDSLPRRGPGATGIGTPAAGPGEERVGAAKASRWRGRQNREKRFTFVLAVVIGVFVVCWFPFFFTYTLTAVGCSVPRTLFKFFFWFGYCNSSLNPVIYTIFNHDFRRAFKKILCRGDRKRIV
# Assay type: cell membranes, Sf9, Membrane
# recorded-conditions: sf9
parameter-measured: IC50

compound="COC(=O)Nc1nc2ccc([S+]([O-])c3ccccc3)cc2[nH]1 (configuration not stated)" parameter_measured=IC50 result="Not Active"
compound=COc1ccc(C2C(=O)c3ccccc3C2=O)cc1 parameter_measured=IC50 result="Not Active"
compound=CC(=O)[C@H]1[C@H](C#N)C[C@H]2[C@@H]3CC=C4C[C@@H](O)CC[C@]4(C)[C@H]3CC[C@@]21C parameter_measured=IC50 result="Not Active"
compound=O=C(Nc1ccc(Br)cc1)c1cc(Br)cc(Br)c1O parameter_measured=IC50 result="Not Active"
compound="O=C(Oc1ccccc1C(=O)O)c1ccccc1O [SALSALATE]" parameter_measured=IC50 result="Not Active"
compound=CC[C@@H](C(=O)[C@@H](C)[C@@H](O)[C@H](C)[C@@H]1O[C@@H]([C@@H](CC)C(=O)O)CC[C@@H]1C)[C@H]1O[C@]2(C=C[C@@H](O)[C@]3(CC[C@@](C)([C@H]4CC[C@](O)(CC)[C@H](C)O4)O3)O2)[C@H](C)C[C@@H]1C parameter_measured=IC50 result="Not Active"
compound=O=C(N/N=C/c1ccc([N+](=O)[O-])o1)c1cc([N+](=O)[O-])cc([N+](=O)[O-])c1O parameter_measured=IC50 result="Not Active"
compound=CCCCNc1ccc(C(=O)OCCN(C)C)cc1 parameter_measured=IC50 result="Not Active"
compound=N#Cc1ccc(C(c2ccc(C#N)cc2)n2cncn2)cc1 parameter_measured=IC50 result="Not Active"
compound=C[C@@H]1C[C@H]2[C@@H]3CCC4=CC(=O)C=C[C@]4(C)[C@@]3(F)[C@@H](O)C[C@]2(C)[C@H]1C(=O)CO parameter_measured=IC50 result="Not Active"
compound=COc1ccc(C(=O)N2CCCC2=O)cc1 parameter_measured=IC50 result="Not Active"
compound=CC(C)=CCC/C(C)=C/CO parameter_measured=IC50 result="Not Active"
compound="Cn1c(=O)c2c(ncn2CC(O)CO)n(C)c1=O (configuration not stated)" parameter_measured=IC50 result="Not Active"
compound=O=C(c1ccccc1C(F)(F)F)N1CCC(Cc2ccccc2)CC1 parameter_measured=IC50 result="Not Active"
compound="COC(=O)CCc1ccc(OCC(O)CNC(C)C)cc1 (configuration not stated)" parameter_measured=IC50 result="Not Active"
compound="CCCCOc1cc(CC2CNC(=O)N2)ccc1OC (configuration not stated)" parameter_measured=IC50 result="Not Active"
compound="CN1[C@@H]2CC[C@H]1C[C@@H](OC(=O)C(CO)c1ccccc1)C2 (some centres not stated)" parameter_measured=IC50 result="Not Active"

* * *

# test-target: UniProtKB O70528
# Sequence (O70528 whole entry): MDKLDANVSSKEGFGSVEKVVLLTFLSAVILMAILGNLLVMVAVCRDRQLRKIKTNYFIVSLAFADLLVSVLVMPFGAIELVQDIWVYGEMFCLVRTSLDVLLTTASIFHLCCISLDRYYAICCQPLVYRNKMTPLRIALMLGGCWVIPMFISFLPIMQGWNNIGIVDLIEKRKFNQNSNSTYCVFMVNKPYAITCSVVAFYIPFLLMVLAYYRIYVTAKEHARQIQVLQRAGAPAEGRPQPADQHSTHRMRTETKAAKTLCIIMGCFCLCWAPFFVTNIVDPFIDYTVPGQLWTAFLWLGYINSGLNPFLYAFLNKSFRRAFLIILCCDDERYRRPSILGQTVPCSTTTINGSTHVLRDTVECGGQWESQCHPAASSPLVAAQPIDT
# Format: cell membranes, Dunkin-Hartley, Striatum, Membrane
parameter-measured: IC50

compound=O=C(O)CCNC(=O)c1ccccc1 test_target="UniProtKB O70528" result="Not Active"
compound=Cn1c(=O)c2nc[nH]c2n(C)c1=O.O test_target="UniProtKB O70528" result="Not Active"
compound=O=C1CN=C(c2ccccc2Cl)c2cc([N+](=O)[O-])ccc2N1 test_target="UniProtKB O70528" result="Not Active"
compound=O=C(Nc1ccc(Br)cc1)c1cc(Br)cc(Br)c1O test_target="UniProtKB O70528" result="Not Active"
compound="O=C(Oc1ccccc1C(=O)O)c1ccccc1O [SALSALATE]" test_target="UniProtKB O70528" result="Not Active"

* * *

# test-target: Cytochrome P450 1A2 (Homo sapiens, UniProt P05177); further: in other assays of this panel Not Active means under 50% inhibition at 10 µM
# Sequence (P05177 whole entry): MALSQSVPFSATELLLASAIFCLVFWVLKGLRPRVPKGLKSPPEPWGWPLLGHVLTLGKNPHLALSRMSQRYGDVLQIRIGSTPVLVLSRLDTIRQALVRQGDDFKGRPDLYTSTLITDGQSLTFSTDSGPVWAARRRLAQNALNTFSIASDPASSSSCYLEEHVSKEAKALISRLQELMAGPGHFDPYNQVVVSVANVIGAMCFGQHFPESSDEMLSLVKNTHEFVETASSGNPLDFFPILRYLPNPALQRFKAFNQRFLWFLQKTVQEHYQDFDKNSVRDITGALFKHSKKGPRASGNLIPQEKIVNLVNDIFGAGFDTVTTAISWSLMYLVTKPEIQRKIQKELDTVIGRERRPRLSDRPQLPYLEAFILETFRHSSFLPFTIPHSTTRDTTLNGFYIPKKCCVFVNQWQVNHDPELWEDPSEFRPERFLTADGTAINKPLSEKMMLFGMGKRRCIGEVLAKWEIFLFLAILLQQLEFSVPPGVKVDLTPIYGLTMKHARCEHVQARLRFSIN
# recorded-conditions: bti-tn-5b1-4
parameter-measured: Ki

molecule="C#C[C@]1(OC(C)=O)CC[C@H]2[C@@H]3CCC4=C[C@@H](OC(C)=O)CC[C@@H]4[C@H]3CC[C@@]21C [ETHYNODIOL DIACETATE]" parameter_measured=Ki result="Not Active"
molecule=O=c1cnn([C@@H]2O[C@H](CO)[C@@H](O)[C@H]2O)c(=O)[nH]1 parameter_measured=Ki result="Not Active"
molecule=CO[C@H]1/C=C/O[C@@]2(C)Oc3c(C)c(O)c4c(O)c(c(/C=N/N5CCN(C6CCCC6)CC5)c(O)c4c3C2=O)NC(=O)/C(C)=C\C=C\[C@H](C)[C@H](O)[C@@H](C)[C@@H](O)[C@@H](C)[C@H](OC(C)=O)[C@@H]1C parameter_measured=Ki result="Not Active"

* * *

# test-target: Tyrosine-protein kinase Lck (Homo sapiens)
# Sequence (P06239 whole entry): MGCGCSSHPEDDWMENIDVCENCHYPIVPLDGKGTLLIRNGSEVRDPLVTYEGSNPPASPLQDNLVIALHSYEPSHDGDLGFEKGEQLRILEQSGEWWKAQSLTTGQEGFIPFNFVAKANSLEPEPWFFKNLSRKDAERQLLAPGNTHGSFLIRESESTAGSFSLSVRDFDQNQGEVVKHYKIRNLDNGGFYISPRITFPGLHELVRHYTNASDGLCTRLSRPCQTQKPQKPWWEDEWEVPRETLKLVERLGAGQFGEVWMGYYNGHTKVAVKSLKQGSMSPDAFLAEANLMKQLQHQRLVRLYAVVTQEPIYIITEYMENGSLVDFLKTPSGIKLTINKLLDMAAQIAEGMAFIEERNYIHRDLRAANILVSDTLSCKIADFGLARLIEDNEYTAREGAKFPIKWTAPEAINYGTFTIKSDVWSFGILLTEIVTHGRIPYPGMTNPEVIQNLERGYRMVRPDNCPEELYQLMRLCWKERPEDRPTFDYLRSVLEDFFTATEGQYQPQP
# assay-overview: DRUGMATRIX: Protein Tyrosine Kinase, LCK enzyme inhibition (substrate: Poly(Glu:Tyr))
# Type: cell-based, Insect cells
# recorded-conditions: Not Active = under 50% inhibition at 10 µM; read-out: IC50
parameter-measured: IC50 (µM)

compound="Cc1c(C)c2c(c(C)c1O)CCC(C)(CN1CCN(c3cc(N4CCCC4)nc(N4CCCC4)n3)CC1)O2 (stereo not drawn)" numeric_value=17.1
compound=Oc1c(Cl)cc(Cl)c(Cl)c1Cc1c(O)c(Cl)cc(Cl)c1Cl numeric_value=2.43
compound=O=C(Nc1ccc(Br)cc1)c1cc(Br)cc(Br)c1O numeric_value=5.02

* * *

# test-target: Cytochrome P450 2A6 (Homo sapiens, UniProt P11509); further: in other assays of this panel Not Active means under 50% inhibition at 10 µM
# Sequence (P11509 whole entry): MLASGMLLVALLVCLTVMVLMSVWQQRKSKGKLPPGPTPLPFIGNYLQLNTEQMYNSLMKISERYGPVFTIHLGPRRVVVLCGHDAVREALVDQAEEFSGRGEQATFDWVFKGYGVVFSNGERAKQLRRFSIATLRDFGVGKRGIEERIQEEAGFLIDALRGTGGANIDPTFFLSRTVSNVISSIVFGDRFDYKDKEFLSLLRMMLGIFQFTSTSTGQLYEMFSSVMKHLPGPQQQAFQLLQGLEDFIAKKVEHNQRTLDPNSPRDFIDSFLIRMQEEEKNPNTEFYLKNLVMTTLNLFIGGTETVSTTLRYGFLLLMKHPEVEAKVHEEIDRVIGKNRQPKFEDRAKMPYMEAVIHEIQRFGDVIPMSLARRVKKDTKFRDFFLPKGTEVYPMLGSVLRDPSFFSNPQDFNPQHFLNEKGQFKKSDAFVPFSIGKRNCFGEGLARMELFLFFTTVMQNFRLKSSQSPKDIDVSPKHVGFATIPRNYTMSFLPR
# recorded-conditions: bti-tn-5b1-4
parameter-measured: Ki

molecule=CCN(CC)CC(=O)Nc1c(C)cccc1C result="Not Active"
molecule=COC(=O)Nc1nc2ccc(C(=O)c3cccs3)cc2[nH]1 result="Not Active"
molecule="Cn1c(=O)c2c(ncn2CC(O)CO)n(C)c1=O (configuration not stated)" result="Not Active"
molecule="CCN(CC)CCOCCC1=CCC2CC1C2(C)C (configuration not stated)" result="Not Active"
molecule="CC(C)NCC(O)c1ccc(O)c(O)c1 (configuration not stated)" result="Not Active"
molecule=CN(C/C=C/C#CC(C)(C)C)Cc1cccc2ccccc12 result="Not Active"
molecule="O.O.O.O.O.O.[Cl-].[Cl-].[Sr+2] [STRONTIUM CHLORIDE HEXAHYDRATE]" result="Not Active"
molecule=COc1cc2nc(N3CCN(C(=O)c4ccco4)CC3)nc(N)c2cc1OC result="Not Active"
molecule="O=C1Nc2ccc(Cl)cc2C(c2ccccc2Cl)=NC1O (configuration not stated)" result="Not Active"
molecule="Cc1c(OCC(F)(F)F)ccnc1C[S+]([O-])c1nc2ccccc2[nH]1 (configuration not stated)" result="Not Active"
molecule="Clc1ccc(COC(Cn2ccnc2)c2ccc(Cl)cc2Cl)cc1 (configuration not stated)" result="Not Active"
molecule=Oc1cccc(O)c1O result="Not Active"
molecule=C[C@H]1C[C@@H]2[C@H]([C@@H](O)C[C@@]3(C)[C@H]2CC[C@]3(O)C(=O)CO)[C@@]2(C)C=CC(=O)C=C12 result="Not Active"
molecule=O=C(N/N=C/c1ccc([N+](=O)[O-])o1)c1cc([N+](=O)[O-])cc([N+](=O)[O-])c1O result="Not Active"
molecule="NC1CCN(c2nc3c(cc2F)c(=O)c(C(=O)O)cn3-c2ccc(F)cc2F)C1 (configuration not stated)" result="Not Active"
molecule="CCCNCC(O)COc1ccccc1C(=O)CCc1ccccc1 (configuration not stated)" result="Not Active"
molecule=CC1(C)S[C@@H]2[C@H](NC(=O)[C@H](N)c3ccccc3)C(=O)N2[C@H]1C(=O)O result="Not Active"
molecule="O=C(Oc1ccccc1C(=O)O)c1ccccc1O [SALSALATE]" result="Not Active"
molecule=C[C@@H]1O[C@@H](O[C@@H]2C=C3CC[C@@H]4[C@H](CC[C@]5(C)[C@@H](c6ccc(=O)oc6)CC[C@]45O)[C@@]3(C)CC2)[C@H](O)[C@H](O)[C@H]1O result="Not Active"
molecule=CO[C@H]1/C=C/O[C@@]2(C)Oc3c(C)c(O)c4c(O)c(c(/C=N/N5CCN(C6CCCC6)CC5)c(O)c4c3C2=O)NC(=O)/C(C)=C\C=C\[C@H](C)[C@H](O)[C@@H](C)[C@@H](O)[C@@H](C)[C@H](OC(C)=O)[C@@H]1C result="Not Active"
molecule=Oc1c(Cl)cc(Cl)c(Cl)c1Cc1c(O)c(Cl)cc(Cl)c1Cl result="Not Active"
molecule="C[n+]1ccccc1/C=N/O.[Cl-] [PRALIDOXIME CHLORIDE]" result="Not Active"
molecule=Cn1c(=O)c2nc[nH]c2n(C)c1=O.O result="Not Active"
molecule=C[C@H]1O[C@@H](n2cc(F)c(=O)[nH]c2=O)[C@H](O)[C@@H]1O result="Not Active"
molecule="CC(C)(C)NC(=O)[C@H]1CC[C@H]2[C@@H]3CC[C@H]4NC(=O)C=C[C@]4(C)[C@H]3CC[C@]12C [FINASTERIDE]" result="Not Active"
molecule=Cc1ccc(NC(=O)c2ccc(CN3CCN(C)CC3)cc2)cc1Nc1nccc(-c2cccnc2)n1 result="Not Active"
molecule=OC(CCCN1CCCCC1)(c1ccccc1)c1ccccc1 result="Not Active"
molecule=O=C(O)c1cccnc1Nc1cccc(C(F)(F)F)c1 result="Not Active"
molecule=CC(C)Oc1ccc2c(=O)c(-c3ccccc3)coc2c1 result="Not Active"
molecule=O=C1O[C@H]([C@@H](O)CO)C(O)=C1O result="Not Active"
molecule="NNc1nncc2ccccc12 [HYDRALAZINE]" result="Not Active"
molecule=CCCCNc1ccc(C(=O)OCCN(C)C)cc1 result="Not Active"
